All figures here come from patent US20160326143A1.

Target: Recombinant human LTC4 synthase (Homo sapiens (Human))
Sequence (Q16873 whole entry): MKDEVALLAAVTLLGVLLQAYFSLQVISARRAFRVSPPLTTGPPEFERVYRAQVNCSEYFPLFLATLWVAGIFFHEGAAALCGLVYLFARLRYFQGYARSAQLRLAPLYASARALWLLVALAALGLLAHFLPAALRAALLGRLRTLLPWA
Assay: In vitro hLTC4 synthase enzyme assay (Test A)
Details: Test A (Examples 1-61); substrate LTA4, LTC4 detected by HTRF; median of at least two determinations
readout_name: IC50 (nM)

Solved entries (count: 4):
COc1cc(N(CC2CC2)c2ccc(C)c(C)c2)ccc1C(=O)C1CC1C(=O)O (stereo not drawn) | 75
COc1cc(N(Cc2ccc(F)c(F)c2F)CC2CC2)cnc1C(=O)C1CC1C(=O)O (stereo not drawn) | 370
COc1nc(C(=O)C2CC2C(=O)O)ncc1N(CC1CC1)c1ccc(F)c2ccccc12 (stereo not drawn) | 19
O=C(O)C1CC1C(=O)c1ccc(N(CC2CC2)c2ccc(Cl)cc2)cn1 (stereo not drawn) | 424

1: O=C(O)C1CC1C(=O)c1ccc(N(Cc2ccc(Cl)cc2)CC2CC2)cn1 (stereo not drawn)
2: COc1cc(N(Cc2ccc(Cl)cc2)CC2CC2)cnc1C(=O)C1CC1C(=O)O (stereo not drawn)
3: COc1cc(N(Cc2cccc(C(F)(F)F)c2C)CC2CC2)cnc1C(=O)C1CC1C(=O)O (stereo not drawn)
4: COc1cc(N(CC2CC2)c2ccc(C)c3ncccc23)ccc1C(=O)C1CC1C(=O)O (stereo not drawn)
Prompt line: List these items ordered by IC50, big to small. Put the labels in the requested order and list them out.
Response line: 1, 4, 3, 2
(1: 636 nM, 4: 359 nM, 3: 88 nM, 2: 34 nM)

A: COc1cc(N(CC2CC2)c2cccc3ccccc23)cnc1C(=O)C1CC1c1nnn[nH]1 (stereo not drawn)
B: COc1cc(N(CC2CC2)c2ccc(C(F)(F)F)c3ccccc23)cnc1C(=O)C1CC1C(=O)O (stereo not drawn)
Prompt line: # query: argmin of IC50 over A and B Pick one; state its label.
Response line: B

A: COc1ccc(S(=O)(=O)NC(=O)C2CC2C(=O)c2ncc(N(CC3CC3)c3ccc(Cl)cc3)cc2OC)cc1 (stereo not drawn)
B: COc1cc(N(Cc2ccc3ccccc3c2)CC2CC2)cnc1C(=O)C1CC1C(=O)O (stereo not drawn)
C: COc1cc(N(CC2CC2)c2ccc(Cl)cc2)cnc1C(=O)C1CC1C(=O)NS(=O)(=O)c1ccc(OC(F)(F)F)cc1 (stereo not drawn)
D: COc1nc(C(=O)C2CC2C(=O)O)ncc1N(CC1CC1)c1ccc(C)c2ccccc12 (stereo not drawn)
Prompt line: Ascending by IC50, please: list the compounds accordingly. Put the labels in the requested order and list them out.
Response line: D, B, A, C

1: COc1cc(N(Cc2ccc(F)cc2)CC2CC2)cnc1C(=O)C1CC1C(=O)O (stereo not drawn)
2: COc1cc(N(Cc2cccc(Cl)c2)CC2CC2)cnc1C(=O)C1CC1C(=O)O (stereo not drawn)
Prompt line: Pick the one with the larger IC50: 1 vs 2 Pick one; state its label.
Response line: 1
(1: 105 nM, 2: 39 nM)

I: COc1cc(N(CC2CC2)c2ccc(Cl)cc2)cnc1C(=O)C1CC1C(=O)NS(=O)(=O)c1ccccc1F (stereo not drawn)
II: COc1cc(N(CC2CC2)c2ccc(F)c3ccccc23)ccc1C(=O)C1CC1C(=O)O (stereo not drawn)
III: COc1cc(N(CC2CC2)c2ccc(C(F)(F)F)c3cccnc23)cnc1C(=O)C1CC1C(=O)O (stereo not drawn)
IV: COc1cc(N(CC2CC2)c2cccc3ccccc23)ccc1C(=O)C1CC1C(=O)O (stereo not drawn)
Prompt line: List these items ordered by IC50, big to small. Put the labels in the requested order and list them out.
Response line: III, I, IV, II
(III: 229 nM, I: 74 nM, IV: 46 nM, II: 26 nM)

I: COc1cc(N(CC2CC2)c2ccc(Cl)c3ccccc23)ccc1C(=O)C1CC1C(=O)O (stereo not drawn)
II: COc1cc(N(CC2CC2)c2ccc3cccc4c3c2CC4)cnc1C(=O)C1CC1C(=O)O (stereo not drawn)
Prompt line: Pick the one with the larger IC50: I vs II Pick one; state its label.
Response line: I
(I: 61 nM, II: 31 nM)

A: COc1cc(N(Cc2ccc(F)c(Cl)c2F)CC2CC2)cnc1C(=O)C1CC1C(=O)O (stereo not drawn)
B: COc1cc(N(CC2CC2)c2ccc(C)c3ccccc23)ccc1C(=O)C1CC1C(=O)O (stereo not drawn)
C: COCC1(CN(c2ccc(Cl)cc2)c2cnc(C(=O)C3CC3C(=O)O)c(OC)c2)CC1 (stereo not drawn)
D: COc1cc(N(Cc2c(F)ccc(C)c2F)CC2CC2)cnc1C(=O)C1CC1C(=O)O (stereo not drawn)
Prompt line: Ascending by IC50, please: list the compounds accordingly. Put the labels in the requested order and list them out.
Response line: B, A, C, D

P: COc1cc(N(Cc2cccc(C)c2C)CC2CC2)cnc1C(=O)C1CC1C(=O)O (stereo not drawn)
Q: COc1cc(N(CC2CC2)c2ccc(F)c3ccccc23)cnc1C(=O)C1CC1c1nnn[nH]1 (stereo not drawn)
R: COc1cc(N(Cc2cccc(C(F)(F)F)c2F)CC2CC2)cnc1C(=O)C1CC1C(=O)O (stereo not drawn)
Prompt line: List these items ordered by IC50, big to small. Put the labels in the requested order and list them out.
Response line: R, P, Q
(R: 331 nM, P: 67 nM, Q: 39 nM)
